Origin of measurements: ChEMBL document CHEMBL5126568

# targetOfAssay: Histone deacetylase 1 (Homo sapiens, UniProt Q13547)
# Sequence (Q13547 whole entry): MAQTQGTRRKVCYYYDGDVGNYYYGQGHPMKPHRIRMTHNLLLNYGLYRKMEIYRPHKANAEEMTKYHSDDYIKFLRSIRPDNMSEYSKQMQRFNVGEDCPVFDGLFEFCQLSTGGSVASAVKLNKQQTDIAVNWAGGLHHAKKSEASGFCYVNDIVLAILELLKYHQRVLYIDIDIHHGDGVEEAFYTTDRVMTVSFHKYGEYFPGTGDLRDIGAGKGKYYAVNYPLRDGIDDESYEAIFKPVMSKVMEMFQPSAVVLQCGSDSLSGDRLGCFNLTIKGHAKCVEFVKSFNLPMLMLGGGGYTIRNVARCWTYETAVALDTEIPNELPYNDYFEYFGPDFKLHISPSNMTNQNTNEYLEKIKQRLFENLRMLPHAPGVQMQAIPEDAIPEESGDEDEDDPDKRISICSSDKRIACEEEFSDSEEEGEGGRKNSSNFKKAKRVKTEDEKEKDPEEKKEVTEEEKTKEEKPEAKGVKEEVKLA
measurementName: pKi
Scale: negative log10 of molar concentration, which is what pKi denotes.

QUERY: Form field - read-out: pKi; system: Histone deacetylase 1 (Homo sapiens, UniProt Q13547); submitted item: CCCNNC(=O)c1ccc(CNC(=O)/C=C/c2ccccc2)cc1
RESULT: 7.40

---

# targetOfAssay: Histone deacetylase 2 (Homo sapiens, UniProt Q92769)
# Sequence (Q92769 whole entry): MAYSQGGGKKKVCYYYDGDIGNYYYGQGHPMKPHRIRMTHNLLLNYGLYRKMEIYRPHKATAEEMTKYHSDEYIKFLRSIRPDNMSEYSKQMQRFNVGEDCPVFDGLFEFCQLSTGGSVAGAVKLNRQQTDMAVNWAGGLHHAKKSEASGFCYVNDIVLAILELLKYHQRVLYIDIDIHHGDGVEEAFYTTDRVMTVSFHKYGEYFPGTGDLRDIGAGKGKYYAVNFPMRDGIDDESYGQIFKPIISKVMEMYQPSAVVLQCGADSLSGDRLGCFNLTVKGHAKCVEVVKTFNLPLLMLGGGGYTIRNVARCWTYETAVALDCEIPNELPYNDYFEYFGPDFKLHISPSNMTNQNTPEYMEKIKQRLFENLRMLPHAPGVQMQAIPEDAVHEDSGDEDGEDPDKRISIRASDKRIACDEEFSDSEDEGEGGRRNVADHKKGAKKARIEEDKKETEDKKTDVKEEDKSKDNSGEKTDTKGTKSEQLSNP
# experimentalProtocol: Inhibition of full length C-terminal FLAG-tagged HDAC2 (unknown origin) using (Ac-Leu-Gly-Lys(Ac)-AMC as substrate preincubated with enzyme for 1 hrs followed by substrate addition and measured after 30 mins by fluorescence based assay
measurementName: IC50 (nM)
Output spec: scalar in nM, unitless text.

QUERY: Bench note: what IC50 did CCCNNC(=O)c1ccc(CNC(=O)/C=C/c2ccccc2)cc1 show?
RESULT: 24.8

---

# targetOfAssay: Histone deacetylase 1 (Homo sapiens, UniProt Q13547)
# experimentalProtocol: Inhibition of full length C-terminal His-tagged HDAC1 (unknown origin) using (Ac-Leu-Gly-Lys(Ac)-AMC as substrate preincubated with enzyme for 1 hrs followed by substrate addition and measured after 30 mins by fluorescence based assay
measurementName: IC50
State the value with its unit after it.

QUERY: Bench note: what IC50 did CCCNNC(=O)c1ccc(CNC(=O)/C=C/c2ccccc2)cc1 show?
RESULT: 7.07 nM
